- TESTED ON: Cathepsin C (Homo sapiens)
- Sequence (P53634 25-463, species assumed): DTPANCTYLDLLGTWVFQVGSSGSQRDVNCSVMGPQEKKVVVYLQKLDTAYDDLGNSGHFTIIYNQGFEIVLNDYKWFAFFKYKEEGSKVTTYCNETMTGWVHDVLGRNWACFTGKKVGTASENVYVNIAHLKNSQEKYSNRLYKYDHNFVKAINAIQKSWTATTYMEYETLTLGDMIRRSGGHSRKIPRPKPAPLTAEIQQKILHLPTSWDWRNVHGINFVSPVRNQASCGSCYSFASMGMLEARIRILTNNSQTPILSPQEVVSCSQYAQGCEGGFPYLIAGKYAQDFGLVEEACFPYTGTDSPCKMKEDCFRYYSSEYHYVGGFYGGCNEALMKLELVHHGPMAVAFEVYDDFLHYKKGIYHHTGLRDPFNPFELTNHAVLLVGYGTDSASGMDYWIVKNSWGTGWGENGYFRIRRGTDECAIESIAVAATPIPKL
Please provide measured IC50 for the entries that follow.
Answers are plain numbers, in nM.

Provide each entry's IC50 from the list below.
1. CN1CCN(C(=O)N[C@@H](CCCNC(=N)N)C(=O)N[C@H](/C=C/S(=O)(=O)c2ccccc2)CCc2ccccc2)CC1
2. CN1CCN(C(=O)N[C@@H](Cc2ccccc2)C(=O)N[C@H](/C=C/S(=O)(=O)c2ccccc2)CCc2ccccc2)CC1

1. 7
2. 0.4

====

- ASSAY METHOD TEXT: Pharmacokinetic study (SRI international)
- MEASUREMENT CONTEXT: in vivo; oral; read-out: oral bioavailability %F
MEASUREMENT TYPE: bioavailability

Form: compound = CN1CCN(C(=O)N[C@@H](CCCNC(=N)N)C(=O)N[C@H](/C=C/S(=O)(=O)c2ccccc2)CCc2ccccc2)CC1 [WRR-483] ; bioavailability = < 1%

====

Protein target, amino acids: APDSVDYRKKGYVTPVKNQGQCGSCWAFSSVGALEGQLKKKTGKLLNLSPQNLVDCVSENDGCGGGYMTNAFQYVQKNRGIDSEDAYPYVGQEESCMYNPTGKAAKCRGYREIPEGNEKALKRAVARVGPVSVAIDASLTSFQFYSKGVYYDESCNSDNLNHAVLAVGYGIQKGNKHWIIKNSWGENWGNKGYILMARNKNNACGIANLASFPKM
MEASUREMENT TYPE: pIC50
Numbers only, as −log10 of the molar value.

Recorded pIC50 (compound CN1CCN(C(=O)N[C@@H](Cc2ccccc2)C(=O)N[C@H](/C=C/S(=O)(=O)c2ccccc2)CCc2ccccc2)CC1 ): 7.60

====

- ASSAY METHOD TEXT: Toxicology study (SRI international)
- MEASUREMENT CONTEXT: in vivo; read-out: no observed adverse effect level (NOAEL)
MEASUREMENT TYPE: NOAEL

Entry under test: CN1CCN(C(=O)N[C@@H](CCCNC(=N)N)C(=O)N[C@H](/C=C/S(=O)(=O)c2ccccc2)CCc2ccccc2)CC1 [WRR-483] . Its NOAEL was > 100 mg/kg

====

- ASSAY METHOD TEXT: Pharmacokinetic study (SRI international)
- MEASUREMENT CONTEXT: in vivo; 10 mg dose iv
MEASUREMENT TYPE: clearance (L/h/kg)
Answers are plain numbers, in L/h/kg.

Data point: CN1CCN(C(=O)N[C@@H](CCCNC(=N)N)C(=O)N[C@H](/C=C/S(=O)(=O)c2ccccc2)CCc2ccccc2)CC1 ; clearance = 1.65

====

- TESTED ON: Cathepsin V (Homo sapiens)
- Construct: Reaction Biology Corp (screening service)
- ASSAY METHOD TEXT: Protease inhibition profiling (Reaction Biology Corp): Cathepsin V
- Format: biochemical
MEASUREMENT TYPE: IC50

Cathepsin V (Homo sapiens) IC50 of CN1CCN(C(=O)N[C@@H](Cc2ccccc2)C(=O)N[C@H](/C=C/S(=O)(=O)c2ccccc2)CCc2ccccc2)CC1 [K11777] is 1.2 nM

====

- TESTED ON: Cathepsin B (Homo sapiens, UniProt P07858)
MEASUREMENT TYPE: IC50 (nM)
Answers are plain numbers, in nM.

Sample CN1CCN(C(=O)N[C@@H](CCCNC(=N)N)C(=O)N[C@H](/C=C/S(=O)(=O)c2ccccc2)CCc2ccccc2)CC1 ; IC50 observed: 3.9

====

- TESTED ON: Cruzain (Trypanosoma cruzi)
- Construct: made in house
- Sequence (P25779 123-337 limits assumed): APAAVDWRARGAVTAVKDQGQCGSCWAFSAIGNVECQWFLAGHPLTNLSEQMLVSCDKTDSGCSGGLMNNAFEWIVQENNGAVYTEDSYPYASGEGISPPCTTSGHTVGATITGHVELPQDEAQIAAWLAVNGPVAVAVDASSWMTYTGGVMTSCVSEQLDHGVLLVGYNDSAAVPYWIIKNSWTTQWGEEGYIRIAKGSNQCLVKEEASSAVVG
- ASSAY METHOD TEXT: biochemical
- Type: biochemical
- MEASUREMENT CONTEXT: pH 8.0, citrate phosphate buffer
MEASUREMENT TYPE: IC50 (nM)
Answers are plain numbers, in nM.

Please fill in: IC50 reported for CN1CCN(C(=O)N[C@@H](CCCNC(=N)N)C(=O)N[C@H](/C=C/S(=O)(=O)c2ccccc2)CCc2ccccc2)CC1 = 8

====

- TESTED ON: Cathepsin V (Homo sapiens, UniProt O60911)
- Construct: Reaction Biology Corp (screening service)
- Sequence (O60911 114-334, species assumed): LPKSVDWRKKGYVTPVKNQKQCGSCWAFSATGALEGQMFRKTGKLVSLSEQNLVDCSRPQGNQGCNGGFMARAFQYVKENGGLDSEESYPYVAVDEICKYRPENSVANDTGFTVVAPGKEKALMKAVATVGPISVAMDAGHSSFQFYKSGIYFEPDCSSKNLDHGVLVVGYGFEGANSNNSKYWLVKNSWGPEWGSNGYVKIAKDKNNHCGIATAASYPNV
- ASSAY METHOD TEXT: Protease inhibition profiling (Reaction Biology Corp): Cathepsin V
- Format: biochemical
- MEASUREMENT CONTEXT: read-out: IC50, Cathepsin V
MEASUREMENT TYPE: pIC50
Give bare numbers, as −log10 of the molar value.

get_value(item= CN1CCN(C(=O)N[C@@H](CCCNC(=N)N)C(=O)N[C@H](/C=C/S(=O)(=O)c2ccccc2)CCc2ccccc2)CC1 [WRR-483] , readout=pIC50) returns 6.47
